test system: MOLT-4 leukemia; test: NCI-60 one-dose screen, 48 h (100 = growth as untreated, 0 = no growth, -100 = all killed); conditions: 10 µM unless noted
Compounds without any hit were thinned out: in the full panel of roughly 83,000, 20% have a hit.
Label Condition met when growth is at or above 80%; otherwise label Condition not met.

For orientation, consider the following solved cases.
[[record]]
molecule = "COc1ccc(/C=C2\\SC(=O)N(Cc3cc(=O)oc4ccc(OC)cc34)C2=O)cc1"
assigned_category = "Condition met"

[[record]]
molecule = "CC(CCN1CCN(CCC(C)CC(C)(C)C)C1CC(C)CC(C)(C)C)CC(C)(C)C (centres undefined)"
assigned_category = "Condition met"

[[record]]
molecule = "COc1cc(/C=C/C(=O)c2ccc(F)cc2)ccc1OCCCCOc1cc2c(cc1OC)C(=O)N1CCCC1C=N2 (centres undefined)"
assigned_category = "Condition not met"

[[record]]
molecule = "COc1ccc(/C=N/c2cc(C(C)(C)C)nn2-c2ccccc2)cc1"
assigned_category = "Condition met"

[[record]]
molecule = "COc1ccc(C2=C/C(=C\\c3ccc(Cl)cc3)C(=O)NN2C(=S)NN)cc1"
assigned_category = "Condition met"


Quick check, growth >= 80%? N#Cc1c2ncccc2c2nnc3cc(Cl)c(Cl)cc3n12
Condition met

Threshold query (growth >= 80%) on CCS(=O)(=O)N[C@@H]1O[C@H](COC(C)=O)C(OC(C)=O)[C@H](OC(C)=O)C1OC(C)=O (some centres undefined)
Condition met

API: above_or_equal(metric=growth, cutoff=80%) for item CCOC(=O)c1c(C)oc2ncnc(Nc3ccc(NC(=O)Nc4cccc(Cl)c4)cc3)c12
Condition not met

# check: growth of CC(O)CN(CCO)CCN(CCO)CC(C)O (centres undefined) is greater than or equal to 80%
Condition met

hey, is growth for this one >= 80%? CCOC(=O)c1cc(C(=O)c2ccc(Br)cc2)n2cc(C)cc(C)c12
Condition met

Record COc1cccc2c1nc1cccc(OC)c1[n+]2[O-] ; criterion: growth no lower than 80%. Met?
Condition not met

Dear colleague, could you confirm whether CCOc1ccc(/C=N/NC(=O)c2cccc3ccccc23)cc1OCC has growth at or above 80%?
Condition met

---

system: HCT-15 colon; test: NCI-60 one-dose screen, 48 h (100 = growth as untreated, 0 = no growth, -100 = all killed); details: 10 µM unless noted
The panel holds about 83,000 compounds, 20% with a hit somewhere; the sample as a whole holds those more often.
growth overview
Value expressed in %; do not type the unit.

Known growth results, listed for orientation:
[[record]]
compound = "CCCCCCC(C)N(CC(C)(C)O)C(=O)c1ccc([N+](=O)[O-])cc1 (stereo not given)"
observed = 104

[[record]]
compound = "CC(=O)CC(=O)OC/C=C(/C)CCC=C(C)C"
observed = 102


Which growth is reported for this compound? CC(=O)Nc1ccc(S(=O)(=O)Cl)cc1
110

Recorded growth of COc1cc(-c2nn(-c3ccc(NC(=O)c4cc(Cl)cc(Cl)c4)cc3)cc2-c2ccncc2)ccc1Cl , please.
22.6

Which measured growth value corresponds to NC(N)=N/N=C/c1cccc(Br)c1 ?
105

Return reported growth; argument: Cc1ccc(S(=O)(=O)N/N=C2\CC3CCC2C3)cc1 (stereo not given)
96

Quick check: growth of COc1ccc(C2=NN(C(=O)c3cc(-c4ccc(C)cc4)nc4ccccc34)C(c3cc(-c4ccccc4)nn3-c3ccccc3)C2)cc1 (stereo not given) ?
82.6

Item under review: CCCCCCCCCCCCCCCCNC(=O)Nc1ccc(C)c(NC(=O)NCCCCCCCCCCCCCCCC)c1 . Reported growth?
105

// query growth value for entry CCc1ccc(C(=Nc2ccc(N(C)C(=O)CN3CCN(C)CC3)cc2)c2c(O)[nH]c3ccc(C(=O)OC)cc23)cc1
-73.2

// returns reported growth for input CC[N+](C)(C)N
103

---

test system: MDA-MB-231 breast; experiment: NCI-60 one-dose screen, 48 h; details: 10 µM unless noted
This is part of a sample that, as a whole, favours compounds with a hit. Of some 83,000 tested, about 20% had one in any assay. Calls of active or inactive are those of the source. The calls were made as follows: active = growth percent below 10; inactive = the rest.
// one of y for active, n for inactive, no free text

[[record]]
molecule = "CC[C@H](Nc1ncnc2nc[nH]c12)c1nc2cccc(NCc3ccc(C(=O)NO)o3)c2c(=O)n1-c1ccccc1"
assigned_category = "n"

[[record]]
molecule = "Cc1ncc(C(=O)Nc2ccc(CN3CCN(C)CC3)c(C(F)(F)F)c2)cc1C#Cc1c(N)ncc2ccccc12"
assigned_category = "y"

[[record]]
molecule = "O=C(O)c1ccc(-c2nn(-c3ccc(C(=O)O)cc3)cc2CNc2ccc(Br)cc2)cc1"
assigned_category = "n"

[[record]]
molecule = "CNc1ccc(Nc2ccc(S(=O)(=O)O)cc2)c2c1C(=O)c1ccccc1C2=O"
assigned_category = "n"

[[record]]
molecule = "Oc1ccc(N=Nc2ccc(N=Nc3ccccc3)cc2)cc1"
assigned_category = "n"


Outcome? C=CCN(C)C
n

# fetch the recorded call for O=C(O)/C(Br)=C/c1c[nH]c2ccc(Br)cc12 here
n

What is the recorded call for this molecule in the test? COc1ccc2c(c1)/C(=C/c1c(-c3cc(OC)c(OC)c(OC)c3)nc3sccn13)C(=O)N2
n

Outcome? CCOC(=O)C1=C(C(F)(F)F)NC(=O)NC1CN1C(=O)c2ccccc2C1=O (stereo not given)
n

Look up the recorded call for CCCCCCNc1nc(N2CCOCC2)c2[nH]c(NCCCCCC)nc2n1 in this test.
y

---

system: SK-MEL-28 melanoma; assay: NCI-60 one-dose screen, 48 h (100 = growth as untreated, 0 = no growth, -100 = all killed); settings: 10 µM unless noted
About 83,000 compounds went through this panel and 20% of them were active in at least one assay; those are over-represented in the sample as a whole. Calls of active or inactive are those of the source. Rule for the calls: active = growth percent below 10; inactive = the rest.
Overview of reported growth across a group of molecules:

Consider the following illustrative entries.
[[record]]
molecule = "Cc1ccccc1-n1c(C)nc2cc(NC(=O)c3ccc(Cl)cc3)ccc2c1=O"
observed = "79.5% (inactive)"

[[record]]
molecule = "Nc1nc2c(c3ncncc13)C(c1cccc(C(F)(F)F)c1)Cc1ncncc1-2 (stereo unspecified)"
observed = "63.7% (inactive)"

[[record]]
molecule = "CCCCN(CCCC)c1ccc(C(=O)O)cc1"
observed = "107% (inactive)"

[[record]]
molecule = "CCOc1ccc(Br)cc1/C=C(\\C#N)c1ccc([N+](=O)[O-])cc1"
observed = "58.6% (inactive)"

[[record]]
molecule = "CCN(CC)C(=O)C1(C)CCCC2(C)c3cc(OC(C)=O)ccc3CCC12 (stereo unspecified)"
observed = "88.5% (inactive)"


What growth value was documented for this molecule, COc1cc(-c2nn(-c3ccc(NC(=O)Nc4cc(C(F)(F)F)cc(C(F)(F)F)c4)cc3)cc2-c2ccncc2)ccc1Cl ?
5.41% (active)

---

system: HCT-116 colon; experiment: NCI-60 one-dose screen, 48 h (100 = growth as untreated, 0 = no growth, -100 = all killed); settings: 10 µM unless noted
The panel holds about 83,000 compounds, 20% with a hit somewhere; the sample as a whole holds those more often.
Each item that follows carries a reported growth.
Answer in %, number only, no unit symbol.

Examples with their reported growth follow.
[[record]]
molecule = "O=C(O)c1ccc(Br)nc1"
observed = 98

[[record]]
molecule = "CC(C)OC(=O)c1ccc2n1CCCc1cnc(Nc3ccccc3)nc1-2"
observed = 73.2

[[record]]
molecule = "COc1ccccc1C(=O)Nc1cccc(-c2cc(=O)c3c(OC)c(OC)c(OC)cc3o2)c1"
observed = 36.7

[[record]]
molecule = "COC(=O)c1ccc2[nH]c(O)c(C(=Nc3ccc(N(C)C(=O)CN4CCN(C)CC4)cc3)c3ccc([N+](=O)[O-])cc3)c2c1"
observed = 20.4

[[record]]
molecule = "COc1cc(-c2c3c(cn2CCN2CCCCC2)-c2oncc2CC3)cc(OC)c1OC"
observed = 89.5


Name the recorded growth for Nc1nc(-c2cccc(Br)c2)cc(-c2cc3ccccc3oc2=O)n1 .
85.5

I would be grateful if you could share the reported growth for CC(=O)CCS(=O)c1ccccc1 (stereo not given) .
102

Record request: growth value, item CC(C)(C)C(=O)OCOP(=O)(OCOC(=O)C(C)(C)C)C1CC(O)N(O)C1=O (stereo not given)
20.9

Can you share its growth? I mean this molecule: CCCC(=O)NNc1[nH]c(-c2cc(OC)c(OC)c(OC)c2)cc1C(=O)OCC
93

Field request: growth | item: O=C(C(=O)N1CCOCC1)c1ccc(O[C@H]2O[C@H](CO)[C@@H](O)[C@H](O)[C@@H]2O)cc1
96.6

---

tested on: T-47D breast; test: NCI-60 one-dose screen, 48 h (100 = growth as untreated, 0 = no growth, -100 = all killed); details: 10 µM unless noted
This is part of a sample that, as a whole, favours compounds with a hit. Of some 83,000 tested, about 20% had one in any assay.
Reported growth is given for each of the following molecules.
Express the result in % but write the number alone.

Recorded results for 6 molecules are shown here.
[[record]]
molecule = "Cc1nnc(-c2cc3c(ccc4ccccc43)oc2=O)c2cn(-c3ccc(Cl)cc3)nc12"
tested_on = "T-47D breast"
measurement_units = "%"
observed = 76.2

[[record]]
molecule = "c1cc(C2CCCCC2)ccc1OCCCCCCN1CCNCC1"
tested_on = "T-47D breast"
measurement_units = "%"
observed = 22.8

[[record]]
molecule = "CCC(CCCN1C(=O)c2ccccc2C1=O)Nc1cc(OC)cc2c(C)ccnc12 (stereo unspecified)"
tested_on = "T-47D breast"
measurement_units = "%"
observed = 85.9

[[record]]
molecule = "CCN(CC)CCOC(=O)c1cccnc1"
tested_on = "T-47D breast"
measurement_units = "%"
observed = 96.6

[[record]]
molecule = "C/C(=C\\c1ccc2ccccc2c1)[N+](=O)[O-]"
tested_on = "T-47D breast"
measurement_units = "%"
observed = -52.8

[[record]]
molecule = "CCCC(=O)NNc1[nH]c(-c2cc(OC)c(OC)c(OC)c2)cc1C(=O)OCC"
tested_on = "T-47D breast"
measurement_units = "%"
observed = 82.1


Report growth for CCCCCCCCCCC1OC(C)CC(C)O1 (stereo unspecified) tested on T-47D breast.
88.7

Item O=C(Nc1ccc(-n2cc(-c3ccncc3)c(-c3ccc(Cl)c(O)c3)n2)cc1)Nc1ccc(Cl)c(C(F)(F)F)c1 with T-47D breast - growth?
4.31

// map CC(Br)c1nc2ccccc2cc1C(N)=O (stereo unspecified) to recorded growth (system: T-47D breast)
95.7

What reported growth corresponds to O=C1NCCN1/N=C/c1c(Cl)nc2n1CCS2 on T-47D breast?
119

Could you share what growth was measured for CNc1nc2ncn(C)c2c(=O)[nH]1 , tested on T-47D breast?
91.4
